Tested on: Plasmodium berghei
protocol: Screen against P. berghei liver stage (PbLuc), transformed with Luciferase, at 10uM
Assay type: functional, HepG2
condition.context: tested at 10 uM
The campaign covered roughly 69,000 compounds. About 8,600 (12%) showed an effect of 50% or more. This is one part of a sample in which strong results are shown more often than they occur.
Listed here are compounds together with their documented INHIBITION.
property: INHIBITION (%)

compound=CC(C)(C(=O)N1CCC(CS(N)(=O)=O)CC1)c1ccccc1F target="Plasmodium berghei" endpoint_unit=% test_value=17.9
compound=CC(=O)N1CC(c2n[nH]c3ncccc23)C1 target="Plasmodium berghei" endpoint_unit=% test_value=27.6
compound="CC(C)(C(=O)N1CCC(C(N)=O)C1)c1ccccc1F (stereo unspecified)" target="Plasmodium berghei" endpoint_unit=% test_value=52.9
compound="CC(=O)N1N=C(c2ccccc2)OC1C(=O)N(C)Cc1ccccc1 (stereo unspecified)" target="Plasmodium berghei" endpoint_unit=% test_value=24.3
compound=CS(=O)(=O)N1CC(c2n[nH]c3ncccc23)C1 target="Plasmodium berghei" endpoint_unit=% test_value=70.1
compound="CN(C)CCOCC1CN(CC2CCOCC2)Cc2nnn(C)c21 (stereo unspecified)" target="Plasmodium berghei" endpoint_unit=% test_value=13
compound=CCc1ccc(CN2CC[C@H]3[C@H]2CC(=O)N3Cc2cccc(C)n2)o1 target="Plasmodium berghei" endpoint_unit=% test_value=30.9
compound=CC(C)NC(=O)[C@@H]1C[C@H](N)CN1C(=O)C1(c2ccc(Cl)cc2)CCC1 target="Plasmodium berghei" endpoint_unit=% test_value=41.5
compound=CC(C)(C(=O)NCC(=O)N1CCCC1)c1ccccc1F target="Plasmodium berghei" endpoint_unit=% test_value=-36.4
compound="O=C(c1cccnc1)N1CCC2(CC1)COC(COc1ccccn1)C2 (stereo unspecified)" target="Plasmodium berghei" endpoint_unit=% test_value=-2.25
compound=CS(=O)(=O)N1CC(c2ncn3ccccc23)C1 target="Plasmodium berghei" endpoint_unit=% test_value=70.4
